test system: GFP-9S motif 4 LD (synthetic construct); assay: HRP pulldown; settings: lysate; Kd above 200 nM called unreliable; HRP: 50 mM Tris pH 8, 150 mM NaCl, 1 mM bME, 50 ug/ml BSA, 3 ug/ml yeast RNA, 0.5% heparin, 2 nM RNA; ITC (25 C) and FP: Tris pH 8, 200 mM KCl, 5% glycerol …
measured_endpoint: pKd
Give bare numbers, as −log10 of the molar value.

- macromolecule_sequence: "AUUACACGUGA [Cy5-rpoA]"
  target_or_test_system: "GFP-9S motif 4 LD (synthetic construct)"
  pKd: 6.67

Moving on to another sequence below.
Data request: Given the entry AUUAAACGUGA [IR-rpoA-A] , report its measured pKd.
Data returned: 6.34
